assay: yeast display, Sf9 membrane polyspecificity reagent, FACS + sequencing; frameworks hold sequencing errors
Value type: polyreactivity (PSR sort gate)

Construct sequence	Reported result
QVQLVESGGGLVQAGGSLRLSCAASGSIFYQNAMGWYRQAPGKERELVAAITSSGGSTYYADSVKGRFTISRDNAKNTVYLQMNSLKPEDTAVYYCNKYFSWRPYSYYYWGQGTQVTVSS	high polyreactivity
QVQLVESGGGLVQAGGSLRLSCAASGIIFRKYAMGRYRQAPGKERELVAAISSSGGSTYYADSVKGRFTISRDNAKNTVYLQMNSLKPEDTAVYYCAAERQVTNKIFNYWGQGTQVTVSS	high polyreactivity
QVQLVESGGGLVQAGGSLRLSCAASGRIFIAYMGWYRQAPGKERELVAAIDSGASTYYADSVKGRFTISRDNAKNTVYLQMNSLKPEDTAVYYCAADVVYDYGGMDYWGQGTQVTVSS	low polyreactivity
QDQHVESGGGLVQAGGSLRLSCAASGFTFSDYALGWYRQAPGKERELVAAISTRGSSTYYADSVKGRFTISRDNAKNTVYLHLNSLKQDYTAVSYCNAVGSYSGYYYWGQGTHVTVSS	high polyreactivity
QVQLVESGGGLVQAGGSLRLSCAASGITLYGNAMGWYRQAPGKERELVAAITGRGGSTYYADSVKGRFTISRDNAKNTVYLQMNSLKPEDTAVYYCNKAQSRSQLYGYWGQGTQVTVSS	high polyreactivity
QVQLLESGVGKVQAGGRLRLSCAASGSIFLIYAMGWYRQAPGKESELVAAISSGGSKYYADSVNGRFTISRDNAKNTVYLQMNSVKPEDTAVYYCATYSTCVAYHLYYWGQGTQVSVSS	low polyreactivity
QVQLVESGRGLVQAGGSLRLSCAASASTFYYNAMGWYRQAPGKEREFVAGITSSGAGTYYADSVKGRFTISRDNAKKTVYLQMNSLKPEDTAVYYCAAVYRWEGRTYRYVYWGQGTQVTVSS	high polyreactivity
QDQLVESGRGLFQAGGSLRLSCAASGSTLWANAMGWYRQAPGKERELVAAISWRGGRTYYADSVKGRFTISRDNAKNTVYLQMNSLKPEVTAVYYCNAVSYYRPRTDYWGQGTLVTVSS	high polyreactivity
QVQLVESGGGLVQAGGSLRLSCAASGFIFNYYTMGWYRQAPGKEREFVAAIRRSGTRTYYADSVKGRFTISRDNAKNTVYLQMNSLKPEDTAVYYCAADVYRTYGMDYWGQGTQVTVSS	high polyreactivity
QVQLVESGGGLVQAGGSLRLSCAASGYIFYYNGMGWYRQAPGKERELVAVISRRGGSTYYADSVKGRFTISRDNAKNTVYLQMNSLKPEDTAVYYCNARARSSRTYKYDYWGQGTQVTVSS	high polyreactivity
QVQHEESGRGLVQAGGSLRLSCAASGINCVYYAMGCYRQAPGKERELVAAISKNGGSTYYADSVKGRFTISRDNAYNTVYLQMNSLKPEDTAVYYCAAEEGYRWVRYNYWGQGTQVTVSS	high polyreactivity
QVQLVESGGGLVQAGGSLRLSCAASGSISVRNVMGWYRQAPGKERELVATIRRTGGSTSYADSVKGRFTISRDNAKNTVYLQLNSLKPEDTAVYDCADVRYTTYRRYEYWGQGTQVTVSS	low polyreactivity
QVHLVESGAGLVQAGGSLSLSCAASVFTLHVYALGWYRQAPGKERELVAALSTGGNTNYADSVKGRFTISRDNAKNTVYLQMHSLKPEDTAVYYCAASNRGATRRQVNYWGQGTQVTVSS	high polyreactivity
QVQLVESGGVLVQAGGSLRLSCAASGSIFDHYAMGWYRQAPGKERELVAAITYSDGSTYYADSVKGRFTISRDNAKNTVFLQMNSLKPEDTAVFYCAAYPRGSQRYNYWGQGTHVTVSS	high polyreactivity
QVQLVESGGGLVQAGGSLRLSCAASGITFRWNAMGWYRPAPGKARELVAAITYRGGSTHYADSVKGRFTISRDNGKNSVYIQMNSLKPEDTAVYYCAVRRWPRYRWSDYWVQGTQVTVSS	low polyreactivity
QVQLVESGGGLVQAGGSLRLSCAASGLIIPKYAMGWYRQAPGKEREFVAAISGRGGTTYYADSVKGRFTISRDNAKNTVYLQMYSLKPEDTAVYYCAAGGPWANIYGNGYWGQGTQVTVSS	high polyreactivity
QVQLVESGGGLVQAGGSLRLSCAASGRIFYEYAMGWYRQAPGKEREVVAAISNSGGSTSYADSVKGRFSISRDNATNTDYLQMNSLQPEDTAVSYCAAGSHSGRAYYYWGEGTQVTVSS	high polyreactivity
QVQLVESGGGLVQAGGSLRLSCAASGSIFYWNAMGWYRQAPGKERELVAGISQRGGRTSYADSVKGRFTISRDNAKNTVYLQMNSLKPEDTAVYYCAATSVYPRSGSSRYDYWGQGTQVTVSS	low polyreactivity
HVQLVESGGGLVQAGGSLRLSCAASGSIYHIYSMGRYRQAPGKERELVAAISFSGGSTYYADSVKGRFTISRDNAKNTVYLQMNSLKPEDNAVYYCAADVYWLPYYYWGQGTLVTVSS	high polyreactivity
QVQLVESGGGLVQAGGSLRLSCAASGGTFYRYAMGWYRQAPGKERELVAAISSSGGSTYYADSVKGRFTISRNNAKNTVYLQMNSLKPEDTAVYYCAAYSFQSHNFDYWGQGTQVTVSS	high polyreactivity
QVQLVESGGGLVQAGGSLRLSCAASGRIFAGYAMGWYRQAPGKERELVAAISNARRTNYADSVKGRFTISRDNAKNNVYLHMNSLKPEDTAVYYCAASRYGRKFSLYDYYYWGQGTQVTVSS	high polyreactivity
